target: human CD33 V267A (human, UniProt P20138 18-364); assay: alanine scan, flow cytometry, HEK293-T;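 note: antibody binding to each alanine-substituted CD33 mutant expressed transiently in HEK293-T, read as fluorescence minus background, mean of duplicates, relative to wild-type CD33 set as 100%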
Sequence (P20138 18-364 V267A limits assumed): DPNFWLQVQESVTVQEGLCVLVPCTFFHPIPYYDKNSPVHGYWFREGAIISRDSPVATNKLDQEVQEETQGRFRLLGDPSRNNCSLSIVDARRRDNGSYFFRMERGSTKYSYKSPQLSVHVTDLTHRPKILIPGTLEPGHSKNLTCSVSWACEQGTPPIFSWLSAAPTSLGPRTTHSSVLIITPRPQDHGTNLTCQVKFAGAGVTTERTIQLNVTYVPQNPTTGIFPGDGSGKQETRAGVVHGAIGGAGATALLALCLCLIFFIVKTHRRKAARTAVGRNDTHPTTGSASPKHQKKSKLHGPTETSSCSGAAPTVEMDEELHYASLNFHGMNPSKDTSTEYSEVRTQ
The entries below come with measured Mean % WT Binding values attached.
Numeric answer only, unit % WT binding assumed.

Consider the reported Mean % WT Binding for these binders:
- Binder: "Refmab #2 (antibody, V domains shown, The alanine scan used IgG or Fab) VH: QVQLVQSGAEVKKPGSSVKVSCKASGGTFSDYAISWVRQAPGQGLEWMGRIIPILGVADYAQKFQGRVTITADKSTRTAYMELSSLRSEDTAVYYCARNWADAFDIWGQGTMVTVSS VL: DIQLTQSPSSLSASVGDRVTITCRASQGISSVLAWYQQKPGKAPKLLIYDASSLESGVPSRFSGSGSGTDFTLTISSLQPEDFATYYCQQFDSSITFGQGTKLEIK"
  Unit symbol: "% WT binding"
  Mean % WT Binding: 114
- Binder: "Refmab #4 (antibody, V domains shown, The alanine scan used IgG or Fab) VH: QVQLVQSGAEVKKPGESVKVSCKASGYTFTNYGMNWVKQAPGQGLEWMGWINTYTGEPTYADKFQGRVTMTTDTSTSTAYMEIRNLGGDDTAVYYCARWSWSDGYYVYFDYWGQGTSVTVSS VL: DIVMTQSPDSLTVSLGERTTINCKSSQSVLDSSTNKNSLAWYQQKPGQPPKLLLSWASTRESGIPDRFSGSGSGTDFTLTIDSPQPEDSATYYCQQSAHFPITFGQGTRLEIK"
  Unit symbol: "% WT binding"
  Mean % WT Binding: 116

Turning to the following binder.
Give the reported Mean % WT Binding for this binder. Refmab #1 (antibody, V domains shown, The alanine scan used IgG or Fab; also called hP67.6) VH: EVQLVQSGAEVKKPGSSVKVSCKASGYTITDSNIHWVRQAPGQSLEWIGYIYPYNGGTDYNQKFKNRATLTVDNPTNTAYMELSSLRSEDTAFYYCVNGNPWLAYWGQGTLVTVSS VL: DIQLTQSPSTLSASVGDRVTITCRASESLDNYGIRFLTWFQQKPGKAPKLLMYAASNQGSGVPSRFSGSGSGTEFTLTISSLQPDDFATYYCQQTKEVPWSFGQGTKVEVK
88.3

Value source: patent US20260242735A1
